target: Porcine Ventricle myofibrils (left ventricle of Yucatan minipigs) (Sus scrofa); construct: Myofibrils from porcine cardiac muscle was isolated from the left ventricle of Yucatan minipigs; tissue Exemplar Genetics; host or cells: left ventricle of Yucatan minipigs; assay: Myofibril ATPase assay (PK/LDH NADH-coupled), ventricle myofibrils; type: biochemical; conditions: Table 8
Sequence (P79293 whole entry): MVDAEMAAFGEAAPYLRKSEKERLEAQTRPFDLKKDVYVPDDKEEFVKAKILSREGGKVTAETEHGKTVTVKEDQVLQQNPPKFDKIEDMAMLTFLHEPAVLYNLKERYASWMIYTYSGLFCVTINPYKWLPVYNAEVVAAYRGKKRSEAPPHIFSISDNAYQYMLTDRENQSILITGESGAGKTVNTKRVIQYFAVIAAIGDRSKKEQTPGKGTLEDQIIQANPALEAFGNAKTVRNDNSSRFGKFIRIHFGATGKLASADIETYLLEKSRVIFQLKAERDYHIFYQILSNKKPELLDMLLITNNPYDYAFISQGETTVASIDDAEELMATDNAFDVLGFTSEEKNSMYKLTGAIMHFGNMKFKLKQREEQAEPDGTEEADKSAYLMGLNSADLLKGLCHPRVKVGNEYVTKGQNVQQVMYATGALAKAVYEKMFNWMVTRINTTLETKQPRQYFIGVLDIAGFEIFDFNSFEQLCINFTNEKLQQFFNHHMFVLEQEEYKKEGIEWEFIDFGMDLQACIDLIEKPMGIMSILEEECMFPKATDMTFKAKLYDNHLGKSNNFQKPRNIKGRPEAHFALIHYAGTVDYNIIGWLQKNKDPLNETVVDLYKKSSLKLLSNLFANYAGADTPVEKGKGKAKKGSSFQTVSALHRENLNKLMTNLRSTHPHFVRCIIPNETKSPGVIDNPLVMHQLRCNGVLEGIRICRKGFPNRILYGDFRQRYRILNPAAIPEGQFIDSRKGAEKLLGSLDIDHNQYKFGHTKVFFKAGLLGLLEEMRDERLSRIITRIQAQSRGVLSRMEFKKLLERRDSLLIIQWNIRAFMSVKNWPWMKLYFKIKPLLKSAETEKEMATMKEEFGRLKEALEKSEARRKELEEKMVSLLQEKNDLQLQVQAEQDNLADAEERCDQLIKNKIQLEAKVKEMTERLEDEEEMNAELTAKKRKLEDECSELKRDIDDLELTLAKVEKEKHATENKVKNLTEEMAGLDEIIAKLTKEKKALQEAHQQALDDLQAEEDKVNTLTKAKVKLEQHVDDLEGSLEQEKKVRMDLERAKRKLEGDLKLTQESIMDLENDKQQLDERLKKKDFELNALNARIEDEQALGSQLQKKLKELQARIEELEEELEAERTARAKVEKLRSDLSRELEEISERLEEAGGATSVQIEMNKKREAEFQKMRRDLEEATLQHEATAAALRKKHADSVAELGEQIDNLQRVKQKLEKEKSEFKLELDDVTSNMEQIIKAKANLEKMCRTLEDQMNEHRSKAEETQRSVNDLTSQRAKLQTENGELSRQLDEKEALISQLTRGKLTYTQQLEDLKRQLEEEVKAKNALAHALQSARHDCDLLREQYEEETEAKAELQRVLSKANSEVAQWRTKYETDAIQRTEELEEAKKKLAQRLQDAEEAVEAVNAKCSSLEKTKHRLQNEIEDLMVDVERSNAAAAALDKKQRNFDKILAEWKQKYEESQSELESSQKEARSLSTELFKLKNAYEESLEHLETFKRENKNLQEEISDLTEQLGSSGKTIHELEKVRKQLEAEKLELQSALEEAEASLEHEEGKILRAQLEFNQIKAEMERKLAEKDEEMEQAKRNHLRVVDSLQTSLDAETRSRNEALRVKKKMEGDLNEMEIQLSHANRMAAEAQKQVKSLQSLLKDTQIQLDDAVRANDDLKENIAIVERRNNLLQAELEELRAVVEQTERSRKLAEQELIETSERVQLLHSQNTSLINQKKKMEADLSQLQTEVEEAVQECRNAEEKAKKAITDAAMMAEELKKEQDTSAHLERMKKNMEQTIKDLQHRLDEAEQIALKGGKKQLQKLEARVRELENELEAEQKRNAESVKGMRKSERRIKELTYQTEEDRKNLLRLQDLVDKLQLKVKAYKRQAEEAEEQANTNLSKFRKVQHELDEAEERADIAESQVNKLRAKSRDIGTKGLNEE
// boundary case: Porcine Ventricle IC25 equal to 20 µM maps to label 0; strictly smaller maps to label 1

Past entries and their recorded results:
> print(dat)
                                   molecule    label
1  C[C@@H](NC(=O)CN1Cc2c(ccc(C#N)c2F)NC1=O)c1ccc(C#N)cc1F  label 0
2  C[C@@H](NC(=O)CN1C(=O)Nc2ccc(F)cc2C12CC2)c1ccc(C#N)cn1  label 1
3  Cc1cnc([C@@H](C)NC(=O)CN2Cc3cc(F)ccc3NC2=O)c(F)c1  label 0

Problem: Determine if `C[C@H](NC(=O)CN1Cc2c(ccc(F)c2F)NC1=O)c1ccc(C#N)cn1` shows Porcine Ventricle IC25 strictly lower than 20 µM.
Result: label 1

Problem: Determine if C[C@H](NC(=O)CN1C(=O)Nc2ccc(F)c(F)c2[C@H]1C)c1ccc(F)cc1F (relative stereo) shows Porcine Ventricle IC25 strictly lower than 20 µM.
Result: label 1

Problem: Determine if `C[C@H](NC(=O)C1(N2Cc3c(ccc(F)c3F)NC2=O)CC1)c1ncc(C#N)cc1F` shows Porcine Ventricle IC25 strictly lower than 20 µM.
Result: label 1

Problem: Determine if `O=C(CN1Cc2cc(F)ccc2NC1=O)N[C@H](CO)c1ccc(F)cc1F` shows Porcine Ventricle IC25 strictly lower than 20 µM.
Result: label 1

Problem: Determine if `Cc1nc(C#N)cnc1[C@H](C)NC(=O)CN1C(=O)Nc2ccc(F)c(F)c2C12CC2` shows Porcine Ventricle IC25 strictly lower than 20 µM.
Result: label 1

Problem: Determine if `Cc1nsc([C@@H](C)NC(=O)CN2Cc3c(ccc(F)c3F)NC2=O)n1` shows Porcine Ventricle IC25 strictly lower than 20 µM.
Result: label 0

Problem: Determine if `C[C@H](NC(=O)CN1Cc2c(ccc(F)c2F)NC1=O)c1ncnc(C#N)c1F` shows Porcine Ventricle IC25 strictly lower than 20 µM.
Result: label 1

Problem: Determine if `C[C@H](NC(=O)CN1Cc2c(ccc(F)c2F)NC1=O)c1ncc(C#N)cn1` shows Porcine Ventricle IC25 strictly lower than 20 µM.
Result: label 1

Problem: Determine if `C[C@@H](NC(=O)CN1Cc2c(ccc(F)c2F)NC1=O)c1ccc2cnccc2n1` shows Porcine Ventricle IC25 strictly lower than 20 µM.
Result: label 0

Problem: Determine if `Cc1cc(F)cc2c1CN(CC(=O)N[C@@H](C)c1ccc(C#N)cc1F)C(=O)N2` shows Porcine Ventricle IC25 strictly lower than 20 µM.
Result: label 1

Problem: Determine if `CC(C)C[C@H](C(=O)N[C@H](C)c1ncc(F)cc1F)N1Cc2c(ccc(F)c2F)NC1=O` shows Porcine Ventricle IC25 strictly lower than 20 µM.
Result: label 0

Problem: Determine if Cc1nc(C(C)NC(=O)CN2Cc3c(ccc(F)c3F)NC2=O)no1 (centres unmarked) shows Porcine Ventricle IC25 strictly lower than 20 µM.
Result: label 0

Problem: Determine if `C[C@H](NC(=O)CN1Cc2cc(F)ccc2NC1=O)c1ccc(C#N)cn1` shows Porcine Ventricle IC25 strictly lower than 20 µM.
Result: label 0
